test system: Alcohol dehydrogenase (Macaca mulatta); experiment: In vitro inhibitory constant against monkey liver alcohol dehydrogenase was determined; details: Cercopithecidae
experimentalReadout: Kii (µM)

1. CCCCCCC1CC[S+]([O-])C1 (stereo not given); 0.35
2. CCCCC1CC[S+]([O-])C1 (stereo not given); 2.3
3. CC1CC[S+]([O-])C1 (stereo not given); 460
4. [O-][S+]1CCCC1 [TETRAMETHYLENE SULFOXIDE]; 1600
5. [O-][S+]1CCC(c2ccccc2)C1 (stereo not given); 1.5

* * *

test: In vitro inhibitory constant against rat liver alcohol dehydrogenase was determined
experimentalReadout: Kii (µM)

1) [O-][S+]1CCC(c2ccccc2)C1 (stereo not given); 1.1
2) [O-][S+]1CCCC1 [TETRAMETHYLENE SULFOXIDE]; 130
3) CC1CC[S+]([O-])C1 (stereo not given); 19
4) CCCCCCC1CC[S+]([O-])C1 (stereo not given); 0.13
5) CCCCC1CC[S+]([O-])C1 (stereo not given); 1.1
